The reported numbers originate from the supplement of paper PMC6992640.

Tested on: HCI01 (cells of a triple-negative basal-like breast cancer xenograft)
Experiment: cell viability (% of vehicle); higher = less cytotoxic;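 also: PDX cells carrying CMV promoter-driven luciferase, viability read as total photon flux per second by IVIS imaging following D-luciferin, vehicle control 0.1% DMSO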
Conditions: 10 µM; 72 h
assayEndpoint: cell viability

- NCCCC(O)(P(=O)([O-])O)P(=O)(O)O.[Na+] [Alendronate sodium]: 102
- CCc1cc(C(C)=NOCc2ccc(C3CCCCC3)c(C(F)(F)F)c2)ccc1CN1CC(C(=O)O)C1 [BAF312 (Siponimod)]: 97.4
- Clc1ccccc1C(c1ccccc1)(c1ccccc1)n1ccnc1: 82.5
- NC(=O)C(CCC(F)(F)F)N(Cc1ccc(-c2ncon2)cc1F)S(=O)(=O)c1ccc(Cl)cc1 (centres undefined): 96
- CC(=O)[N-]S(=O)(=O)c1ccc(N)cc1.[Na+] [Sulfacetamide Sodium]: 98.2
- Cc1ncc(C[n+]2csc(CCO)c2C)c(N)n1.Cl.[Cl-] [Thiamine HCl (Vitamin B1)]: 113
- NC(=O)c1cn(Cc2c(F)cccc2F)nn1 [Rufinamide]: 93.3
- CC(C)C(=O)OCC(=O)[C@@]12O[C@H](C3CCCCC3)O[C@@H]1C[C@H]1[C@@H]3CCC4=CC(=O)C=C[C@]4(C)[C@H]3[C@@H](O)C[C@@]12C [Ciclesonide]: 67.6
- CN(C)CCC(c1ccc(Cl)cc1)c1ccccn1.O=C(O)C=CC(=O)O (centres undefined) [Chlorpheniramine Maleate]: 157

* * *

Test system: HCI13 (cells of an ER-positive luminal breast cancer xenograft)
Experiment: cell viability (% of vehicle); higher = less cytotoxic
Settings: 10 µM; 72 h
The entries below are paired with their reported cell viability.
assayEndpoint: cell viability

- CN(C)C(=O)NC1CCC(CCN2CCN(c3cccc(Cl)c3Cl)CC2)CC1 (stereo not drawn): 53.4
- COCCCOc1ccnc(C[S+]([O-])c2nc3ccccc3[nH]2)c1C (stereo not drawn): 152
- CC(=O)Oc1cc2c(s1)CCN(C(C(=O)C1CC1)c1ccccc1F)C2.Cl (stereo not drawn) [Prasugrel hydrochloride]: 74.2
- COCC1=C(C(=O)OC(C)OC(=O)OC(C)C)N2C(=O)[C@@H](NC(=O)/C(=N\OC)c3csc(N)n3)[C@H]2SC1 (stereo partly drawn): 109
- CCc1ccc(CCOc2ccc(CC3SC(=O)NC3=O)cc2)nc1.Cl (stereo not drawn) [Pioglitazone HCl]: 126
- CN1CCC(=C2c3ccccc3CCn3c(C=O)cnc32)CC1: 120
- CO[C@H]1/C=C/O[C@@]2(C)Oc3c(C)c(O)c4c(O)c(c(/C=N/N5CCN(C6CCCC6)CC5)c(O)c4c3C2=O)NC(=O)/C(C)=C\C=C\[C@H](C)[C@H](O)[C@@H](C)[C@@H](O)[C@@H](C)[C@H](OC(C)=O)[C@@H]1C: 133
- [O-][n+]1cccc(CO)c1 [Mepiroxol]: 99.2

* * *

Tested on: HCI03 (cells of an ER-positive luminal breast cancer xenograft)
Experiment: cell viability (% of vehicle); higher = less cytotoxic
Details: 10 µM; 72 h
cell viability values for the compounds below.
assayEndpoint: cell viability

- CS(=O)(=O)CCNCc1ccc(-c2ccc3ncnc(Nc4ccc(OCc5cccc(F)c5)c(Cl)c4)c3c2)o1: 45.4
- CCn1cc(C(=O)O)c(=O)c2cc(F)c(N3CCN(C)CC3)cc21.CS(=O)(=O)O [Pefloxacin Mesylate]: 137
- CC1OC(n2cc(F)c(=O)[nH]c2=O)C(O)C1O (centres undefined): 152
- COc1c(N2CC3CCCNC3C2)c(F)cc2c(=O)c(C(=O)O)cn(C3CC3)c12.Cl (centres undefined) [Moxifloxacin HCl]: 124
- CC(C)Nc1cc(-c2c[nH]c(C(=O)NC(CO)c3cccc(Cl)c3)c2)c(Cl)cn1 (centres undefined): 135
- Cc1ccc(NC(=O)c2ccc(CN3CCN(C)CC3)cc2)cc1Nc1nccc(-c2cccnc2)n1 [Imatinib (STI571)]: 156
- CCN(CC)CC(=O)Nc1c(C)cccc1C: 94.4
- CCCN(CCC)S(=O)(=O)c1ccc(C(=O)O)cc1: 142
- CC(C)(C)C(=O)OCOP(=O)(COCCn1cnc2c(N)ncnc21)OCOC(=O)C(C)(C)C: 148
- CC(C)Cc1ccc(C(C)C(=O)O)cc1 (centres undefined): 115
- CNCC(O)C(O)C(O)C(O)CO.Cc1c(Nc2ncccc2C(=O)O)cccc1C(F)(F)F: 120
- c1ccc(-c2ccc(C(c3ccccc3)n3ccnc3)cc2)cc1 (centres undefined): 108
- CCOC(=O)C(CCc1ccccc1)NC(C)C(=O)N1C(=O)N(C)CC1C(=O)O.Cl (centres undefined) [Imidapril HCl]: 113
- CCc1ccc(CCOc2ccc(CC3SC(=O)NC3=O)cc2)nc1 (centres undefined): 118

* * *

System: HCI03
Assay: cell viability (% of vehicle); higher = less cytotoxic
Conditions: 10 µM; 72 h
Readings of cell viability for the listed compounds
assayEndpoint: cell viability

- CC1(C)O[C@@H]2C[C@H]3[C@@H]4CCC5=CC(=O)C=C[C@]5(C)[C@H]4[C@@H](O)C[C@]3(C)[C@]2(C(=O)CO)O1 [Desonide]: 176
- c1ccc2[nH]c(-c3cscn3)nc2c1: 160
- NC(=O)c1ncn(C2OC(CO)C(O)C2O)c1O (stereo not given): 89.4
- Br.COc1ccc2c3c1O[C@H]1C[C@@H](O)C=C[C@@]31CCN(C)C2: 102
- CNCCC(Oc1ccccc1C)c1ccccc1.Cl (stereo not given) [Atomoxetine HCl]: 145
- CCC(C(C)O)n1ncn(-c2ccc(N3CCN(c4ccc(OCC5COC(Cn6cncn6)(c6ccc(F)cc6F)C5)cc4)CC3)cc2)c1=O (stereo not given): 78
- Cc1cc(NS(=O)(=O)c2ccc(N)cc2)no1: 127
- CC(C)CC(N)=O [Isovaleramide]: 132
- Cl.Clc1cccc(Cl)c1NC1=NCCN1 [Clonidine HCl]: 127
- CCCNS(=O)(=O)Nc1ncnc(OCCOc2ncc(Br)cn2)c1-c1ccc(Br)cc1: 109
- CC1CCOC2Cn3cc(C(=O)NCc4ccc(F)cc4F)c(=O)c(O)c3C(=O)N12 (stereo not given): 110
- CCNC1CN(CCCOC)S(=O)(=O)c2sc(S(N)(=O)=O)cc21 (stereo not given) [Brinzolamide]: 142
- CCCc1nc(C)c2c(=O)nc(-c3cc(S(=O)(=O)N4CCN(CC)CC4)ccc3OCC)[nH]n12: 169
- CC1=CC(=O)c2ccccc2C1=O: 51.9
- COc1ccccc1OCCNCC(O)COc1cccc2[nH]c3ccccc3c12 (stereo not given): 69.9
- C#Cc1cccc(Nc2ncnc3cc(OCCOC)c(OCCOC)cc23)c1: 73.6
- CO[C@H]1C[C@@H]2CC[C@@H](C)[C@@](O)(O2)C(=O)C(=O)N2CCCC[C@H]2C(=O)O[C@H]([C@@H](C)C[C@@H]2CC[C@@H](OCCO)[C@H](OC)C2)CC(=O)[C@H](C)/C=C(\C)[C@@H](O)[C@@H](OC)C(=O)[C@H](C)C[C@H](C)/C=C/C=C/C=C/1C [Everolimus (RAD001)]: 69.8
- FC(F)(F)c1ccc(C=Cc2nc(COc3ccc(CCCCn4ccnn4)cc3)co2)cc1: 89.9
- CCC1C(=O)N(C)c2cnc(Nc3ccc(C(=O)NC4CCC(N5CCN(CC6CC6)CC5)CC4)cc3OC)nc2N1C(C)C (stereo not given): 85.1
- Cc1ccccc1N1C(=O)c2cc(S(N)(=O)=O)c(Cl)cc2NC1C (stereo not given): 129

* * *

System: WHIM2 (cells of a triple-negative basal-like breast cancer xenograft)
Assay: cell viability (% of vehicle); higher = less cytotoxic
Settings: 10 µM; 72 h
cell viability class ranges: L: < 80; M: ≥ 80 and < 100; H: ≥ 100

• CC1CCOC2Cn3cc(C(=O)NCc4ccc(F)cc4F)c(=O)c(O)c3C(=O)N12 (configuration not stated) = H
• Cc1ccccc1C(OCCN(C)C)c1ccccc1.O=C(O)CC(O)(CC(=O)O)C(=O)O (configuration not stated) [Orphenadrine Citrate] = M
• O=c1c(-c2ccc(O)cc2)coc2cc(O)ccc12 = H
• CNC(=O)c1cc(Oc2ccc(NC(=O)Nc3ccc(Cl)c(C(F)(F)F)c3)cc2)ccn1 = L
• CN1CCN(CCOc2cc(OC3CCOCC3)c3c(Nc4c(Cl)ccc5c4OCO5)ncnc3c2)CC1 = L
• CC(C)n1c(C=CC(O)CC(O)CC(=O)[O-])c(-c2ccc(F)cc2)c2ccccc21.[Na+] (configuration not stated) [Fluvastatin Sodium] = L
• COC(=O)C1CC2=CC(=O)CCC2(C)C23OC2CC2(C)C(CC[C@]24CCC(=O)O4)C13 (some centres not stated) = H
• Nc1ccc(C(=O)[O-])c(O)c1.O.O.[Na+] [Sodium 4-Aminosalicylate] = M
• CC(C)OC(=O)OCOP(=O)(COC(C)Cn1cnc2c(N)ncnc21)OCOC(=O)OC(C)C.O=C(O)C=CC(=O)O (configuration not stated) [Tenofovir Disoproxil Fumarate] = H
• O=c1c(-n2ccnn2)c[nH]n1-c1cc(N2CCOCC2)ncn1 = H
• CCCCOc1cc(C(=O)NCCN(CC)CC)c2ccccc2n1.Cl [Dibucaine (Cinchocaine) HCl] = M
• CCCCc1nc2cc(C=CC(=O)NO)ccc2n1CCN(CC)CC [Pracinostat (SB939)] = L
• CC(C)Nc1cc(-c2c[nH]c(C(=O)NC(CO)c3cccc(Cl)c3)c2)c(Cl)cn1 (configuration not stated) = L
• Cl.O=C(Nc1ccccc1)OCC(CN1CCCCC1)OC(=O)Nc1ccccc1 (configuration not stated) [Diperodon HCl] = M
• COc1cc(Nc2c(C#N)cnc3cc(OCCCN4CCN(C)CC4)c(OC)cc23)c(Cl)cc1Cl [Bosutinib (SKI-606)] = L
• Cc1ccc(S(=O)(=O)NC(=O)NN2CC3CCCC3C2)cc1 (configuration not stated) [Gliclazide] = H
• O=C(O)CO.[NH2-].[NH2-].[Pt+2] = L
